Source of measurements: patent US20230340011A1

Target: LXRβ (Homo sapiens (Human), UniProt P55055)
Sequence (P55055 whole entry, the tested form may be a part): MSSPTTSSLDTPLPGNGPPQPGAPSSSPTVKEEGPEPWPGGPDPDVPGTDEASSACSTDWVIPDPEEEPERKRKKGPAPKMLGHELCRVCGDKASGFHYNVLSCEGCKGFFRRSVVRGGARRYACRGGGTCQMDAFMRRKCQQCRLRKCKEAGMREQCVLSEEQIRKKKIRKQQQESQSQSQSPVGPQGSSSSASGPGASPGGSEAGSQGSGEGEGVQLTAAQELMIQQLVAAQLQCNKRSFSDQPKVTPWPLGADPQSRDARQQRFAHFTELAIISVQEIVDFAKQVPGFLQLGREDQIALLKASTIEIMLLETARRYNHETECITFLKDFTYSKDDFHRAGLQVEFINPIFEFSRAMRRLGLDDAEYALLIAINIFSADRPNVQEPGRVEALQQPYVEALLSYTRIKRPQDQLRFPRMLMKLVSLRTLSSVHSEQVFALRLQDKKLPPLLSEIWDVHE
Test: In vitro assay LXRβ: PathHunter NHR CHO cells, LXRβ / Steroid Receptor Co-activator Peptide enzyme fragment complementation
Assay type: cell-based
Conditions: PathHunter NHR CHO cells, full-length human LXRβ and SRCP, chemiluminescent signal; read-out: LXRβ PPI
Measured EC50 values are reported for all entries that follow.

Some compounds with recorded EC50:
C[C@H](CCC(=O)N1CCN(c2ccncn2)[C@@H](C)C1)[C@H]1CC[C@H]2[C@@H]3CC=C4C[C@@H](O)CC[C@]4(C)[C@H]3CC[C@]12C [Example 575]	> 10 µM
CC(=O)NC1CCN(C(=O)CC[C@@H](C)[C@H]2CC[C@H]3[C@@H]4CC=C5C[C@@H](O)CC[C@]5(C)[C@H]4CC[C@]23C)CC1 [Example 320]	> 10 µM
CON(CCO)C(=O)CC[C@@H](C)[C@H]1CC[C@H]2[C@@H]3CC=C4C[C@@H](O)CC[C@]4(C)[C@H]3CC[C@]12C [Example 62]	0.25 to 1 µM
C[C@H](CCC(=O)N1CCN(C(=O)c2nnnn2C)CC1)[C@H]1CC[C@H]2[C@@H]3CC=C4C[C@@H](O)CC[C@]4(C)[C@H]3CC[C@]12C [Example 363]	> 10 µM

# input Endpoint output: EC50 of C[C@H](CCc1ccc(F)cn1)[C@H]1CC[C@H]2[C@@H]3CC=C4C[C@@H](O)CC[C@]4(C)[C@H]3CC[C@]12C [Example 162] . Value?
# output 1 to 10 µM

# input // query EC50 value for entry CC1CN(C(=O)N2CCN(C(=O)CC[C@@H](C)[C@H]3CC[C@H]4[C@@H]5CC=C6C[C@@H](O)CC[C@]6(C)[C@H]5CC[C@]34C)CC2)C1 [Example 664]
# output > 10 µM
